Measured T/C accompanies every entry in the list below.
# System: L1210 leukemia ip in BDF1 mice, survival T/C
# experiment-summary: NCI In Vivo Anticancer Drug Screen. Data for tumor model L1210 Leukemia (intraperitoneal) in B6D2F1 (BDF1) mice
# stated-conditions: endpoint: mean survival time; dose: 400.0 mg/kg/injection; schedule: Q01DX009 (ip); vehicle: Klucel (hydroxypropylcellulose) (HPC); higher = longer survival
Inconclusive results and toxic doses are left out.

>  <smiles-string>
CCCCCCCCCCCCCCCCCCNC(=O)N(CC)c1ccccc1

>  <value-observed>
106 % of control

$$$$

Query string: Quick one: T/C of CN(C(=O)Nc1ccc(Cl)cc1[N+](=O)[O-])C1CCCCC1 ?
Result string: 97 % of control

Query string: Quick one: T/C of C=CCNC(=S)NCC=C ?
Result string: 100 % of control

* * *

Measured T/C accompanies every entry in the list below.
# System: L1210 leukemia ip in BDF1 mice, survival T/C
# experiment-summary: NCI In Vivo Anticancer Drug Screen. Data for tumor model L1210 Leukemia (intraperitoneal) in B6D2F1 (BDF1) mice
# stated-conditions: endpoint: mean survival time; dose: 400.0 mg/kg/injection; schedule: Q01DX009 (ip); vehicle: Klucel (hydroxypropylcellulose) (HPC); higher = longer survival
Toxic doses and inconclusive results are not listed.

>  <compound>
CSc1ccc(NC(=O)N(Cc2ccccc2)c2ccccc2)cc1

>  <tested-on>
L1210 leukemia ip in BDF1 mice, survival T/C

>  <T/C>
95 % of control

$$$$
>  <compound>
CCCCCCCC/C=C\CCCCCCCC(=O)OCCCCCCCCCCCCCCCC

>  <tested-on>
L1210 leukemia ip in BDF1 mice, survival T/C

>  <T/C>
93 % of control

$$$$

Query string: Quick one: T/C of CCCCC(CC)C(O)C1CCCCC1O (stereo unspecified) ?
Result string: 86 % of control

* * *

Measured T/C accompanies every entry in the list below.
# System: L1210 leukemia ip in BDF1 mice, survival T/C
# experiment-summary: NCI In Vivo Anticancer Drug Screen. Data for tumor model L1210 Leukemia (intraperitoneal) in B6D2F1 (BDF1) mice
# stated-conditions: endpoint: mean survival time; dose: 100.0 mg/kg/injection; schedule: Q01DX001 (ip); vehicle: carboxymethylcellulose (CMC); higher = longer survival
Toxic doses and inconclusive results are not listed.

In the examples that follow, each entry is paired with its recorded T/C.
>  <compound>
Cc1ccc2nn(-c3ccc(O)cc3)[n+]([O-])c2c1

>  <tested-on>
L1210 leukemia ip in BDF1 mice, survival T/C

>  <T/C>
102 % of control

$$$$
>  <compound>
CC(=O)Nc1ccc(S(C)(=O)=O)cc1I

>  <tested-on>
L1210 leukemia ip in BDF1 mice, survival T/C

>  <T/C>
93 % of control

$$$$
>  <compound>
O=C1C=CC(=O)N1Cc1ccc[n+](CCC[n+]2cccc(CN3C(=O)C=CC3=O)c2)c1

>  <tested-on>
L1210 leukemia ip in BDF1 mice, survival T/C

>  <T/C>
98 % of control

$$$$
>  <compound>
N=C(N)SC1c2cc(Cl)ccc2-c2c(Cl)cc(Cl)cc21 (stereo unspecified)

>  <tested-on>
L1210 leukemia ip in BDF1 mice, survival T/C

>  <T/C>
94 % of control

$$$$

Query string: Quick one: T/C of COc1cccc(/C=N/N2CCN(/N=C/c3cccc(OC)c3OC)CC2)c1OC ?
Result string: 94 % of control

Query string: Quick one: T/C of CN1C(=O)N(C)C2(CCCC2)C1=O ?
Result string: 107 % of control
